Test system: Mycobacterium tuberculosis
assay text: Cornell M. t heat shock assay; further: in the data most compounds retested in dose-response had high values
Assay type: functional, organism-based
Set-up: dose or concentration left out as unconfirmed
Hit rate of the full screen: of about 69,000 compounds, about 950 (1.4%) showed an effect of 50% or more. The entries come from a sample that favours strong results as a whole.
recorded endpoint: Percent Effect (%)
Numbers only here, please. The scale is %.

CCC/N=c1/c(NC(=O)NCCOC)c(O)oc2ccccc12
-14.33
Cc1cc2n(n1)CC(CNC1CCN(Cc3ccncc3)CC1)CN2 (configuration not stated)
-16.93
CC1CCN(c2cncc(CCC3CCCN3)n2)CC1.Cl (configuration not stated)
-9.936
Cc1ccc(C2(CN3CCN(Cc4cn(C)nc4C)CC3)CC2)cc1.Cl
5.814
CC(C)N1CCc2c(C(=O)N3CCOCC3)nn(C)c2C1.O=C(O)C(F)(F)F
1.567

State the recorded Percent Effect for this entry: COc1ccc(CN2C[C@@H]3OCCN(CCN4CCCC4)[C@@H]3C2)cc1.O=C(O)C(F)(F)F.O=C(O)C(F)(F)F.O=C(O)C(F)(F)F
-18.96

State the recorded Percent Effect for this entry: O=C(O)C(F)(F)F.c1ccc(CN2CCCn3nnc(CNc4ncccn4)c3C2)nc1
11.56

---

Tested on: Mycobacterium tuberculosis
assay text: Cornell M. t heat shock assay; further: in the data most compounds retested in dose-response had high values
Format: functional, organism-based
Set-up: dose or concentration left out as unconfirmed
Among all 69,000 compounds or so, about 950 (1.4%) showed an effect of 50% or more. The sample as a whole holds a higher share of strong results than the screen did.
Mark each entry Met if its Percent Effect sits below 10%, and Not met for all others.

Example entries begin here.
Cc1ccc(N2CCCC(c3[nH]ncc3Cc3ccccc3)C2)nn1 (centres undefined)
Met
CC(C)c1nnc2n1CC(CNCc1cccnc1)CC2 (centres undefined)
Met
CS(=O)(=O)N1C[C@@H]2CC[C@H](C1)N(Cc1ccsc1)C2
Not met
Cc1ccc(N2CCC(c3[nH]ncc3Cc3ccccc3)CC2)nn1
Not met
Cc1noc(C)c1CN1CCc2ncnc(-c3ccncc3)c2CC1.O=C(O)C(F)(F)F.O=C(O)C(F)(F)F
Met
O=C(O)C(F)(F)F.O=C(c1cscn1)N1CCC2(CN(Cc3ccoc3)C2)C1
Met

Threshold test, Percent Effect < 10%: Cn1nc(C(=O)N2CCOCC2)cc1C(=O)Nc1ccc(Cl)cc1Cl
Not met

Threshold test, Percent Effect < 10%: Cn1ccnc1CN1CCC2(CC(=O)N(c3cncnc3)C2)C1.O=C(O)C(F)(F)F (centres undefined)
Met

Threshold test, Percent Effect < 10%: CC(C)c1nnc2n1CC(CNCc1ccsc1)CC2 (centres undefined)
Met

Threshold test, Percent Effect < 10%: CCc1cn[nH]c1C1CCN(c2cc(C)c3ccc(OC)cc3n2)CC1
Met

Threshold test, Percent Effect < 10%: CCc1cnc(N)nc1NC(C)c1ccc(C)c(C)c1 (centres undefined)
Not met

---

System: Mycobacterium tuberculosis
assay text: Cornell M. t heat shock assay; further: in the data most compounds retested in dose-response had high values
Format: functional, organism-based
Design: dose or concentration left out as unconfirmed
The campaign covered roughly 69,000 compounds. About 950 (1.4%) showed an effect of 50% or more. The full list was thinned out, with strong results kept by preference.
recorded endpoint: Percent Effect (%)
Numbers only here, please. The scale is %.

Cc1cnc(NC(=O)c2cccc(CN(C)Cc3snnc3C)c2)s1
9.507
CC(=O)Nc1ccc(OCc2noc(C(=O)N3CCCCCC3)n2)cc1
51.07
CC(=O)Nc1ccc(OCc2noc(C(=O)N3CCCCC3)n2)cc1
65.04
COc1ccc(CN(Cc2cncn2C)CC2CCCO2)cc1OC.O=C(O)CC(O)(CC(=O)O)C(=O)O (stereo not drawn)
-6.379
CC(C)(CO)CNC(=O)c1cc(-c2cc[nH]n2)n2ccccc12.O=C(O)C(F)(F)F
10.76

State the recorded Percent Effect for this entry: CS(=O)(=O)NCc1cn2c(n1)CN(Cc1cccnc1)CC2.O=C(O)C(F)(F)F.O=C(O)C(F)(F)F
42.6

State the recorded Percent Effect for this entry: COCCn1cncc1CN1CCCC(C(=O)Cc2ccccc2)C1 (stereo not drawn)
2.668

State the recorded Percent Effect for this entry: CNC(=O)[C@@H]1[C@@H](OC(=O)Nc2ccccc2)C(=O)N(C)C12CCNCC2
60.88

State the recorded Percent Effect for this entry: Cn1ccnc1CN(Cc1ccccn1)Cc1ccccc1Cl.O=C(O)CC(O)(CC(=O)O)C(=O)O
102.4

State the recorded Percent Effect for this entry: Cc1cc(NCCNc2cccnc2)nc(-c2ccccc2O)n1
65.56

State the recorded Percent Effect for this entry: Cc1cc(NCCN)nc(-c2ccccc2O)n1
74.35

State the recorded Percent Effect for this entry: O=C(O)C(F)(F)F.O=C(O)C(F)(F)F.O=C1CO[C@@H]2CN(Cc3ccsc3)C[C@H]2N1Cc1ccncc1
1.203

State the recorded Percent Effect for this entry: Cc1ccc(C(=O)N2C[C@@H]3CC[C@H](C2)N(Cc2ccccc2)C3)cn1
-13.46

---

Test system: Mycobacterium tuberculosis
assay text: Cornell M. t heat shock assay; further: in the data most compounds retested in dose-response had high values
Format: functional, organism-based
Design: dose or concentration left out as unconfirmed
Out of some 69,000 compounds screened, about 950 (1.4%) showed an effect of 50% or more. Shown is part of a subset that was picked to be rich in strong results.
recorded endpoint: Percent Effect (%)
Numbers only here, please. The scale is %.

Previously resolved entries follow.
CS(=O)(=O)N[C@@H]1CN(C(=O)c2cccnc2)[C@@H]2CCCO[C@@H]21.O=C(O)C(F)(F)F
-22.75
Cc1noc(C)c1CN1CCc2c(CNc3nccs3)n[nH]c2C1.O=C(O)C(F)(F)F
8.041
CCCC1CN(CC(C)C)C(=O)c2cccnc2O1 (stereo not given)
-5.035
COc1ccc(CNC(Cc2cccs2)c2nc(C)c(C)s2)cc1OC.Cl (stereo not given)
-4.28
Cc1cnn(C2CN(Cc3nc4cc(Cl)ccc4n3C)C2)c1
84.58

Please provide the recorded Percent Effect for COc1cc(CNCc2ccnc(N3CCCC3)c2)cc(OC)c1.Cl , tested on Mycobacterium tuberculosis.
5.029

Please provide the recorded Percent Effect for O=C1N(Cc2ccc(F)c(F)c2)CCCC12CCN(C1CCCC1)C2 (stereo not given) , tested on Mycobacterium tuberculosis.
48.94

Please provide the recorded Percent Effect for COc1cc(N2CCC3(CCN(Cc4nccs4)CC3)C2)ncn1.O=C(O)C(F)(F)F , tested on Mycobacterium tuberculosis.
24.13

Please provide the recorded Percent Effect for O=C1N(Cc2ccc(F)c(F)c2)CCCC12CCN(C1CCSCC1)C2 (stereo not given) , tested on Mycobacterium tuberculosis.
39.79

Please provide the recorded Percent Effect for O=C1N(Cc2ccc(F)c(F)c2)CCCC12CCN(C1CCCCC1)C2 (stereo not given) , tested on Mycobacterium tuberculosis.
88.26

Please provide the recorded Percent Effect for CCc1ccc(CN2CC[C@H]3[C@H]2CC(=O)N3Cc2cccc(C)n2)o1.O=C(O)C(F)(F)F.O=C(O)C(F)(F)F , tested on Mycobacterium tuberculosis.
-1.259

Please provide the recorded Percent Effect for O=C(Nc1c(N2CCCC2)cccc1N1CCCC1)c1cnsn1 , tested on Mycobacterium tuberculosis.
3.548

Please provide the recorded Percent Effect for COc1ccc(-c2cc3cccn(CC(=O)N4CCOCC4)c-3n2)cc1 , tested on Mycobacterium tuberculosis.
-34.2

Please provide the recorded Percent Effect for COCC(=O)NC[C@H]1CC[C@H](c2ccnc3ncnn32)CC1 , tested on Mycobacterium tuberculosis.
20.19

Please provide the recorded Percent Effect for O=C(CCc1cncc(F)c1)NS(=O)(=O)c1ccc(F)cc1F , tested on Mycobacterium tuberculosis.
21.56

Please provide the recorded Percent Effect for O=C(O)C(F)(F)F.O=C(O)C(F)(F)F.c1cnc(N2CCC3(CCN(Cc4ccncc4)CC3)CC2)nc1 , tested on Mycobacterium tuberculosis.
6.802

Please provide the recorded Percent Effect for CCOc1ccc(Br)cc1-c1cc(N)[nH]n1.Cl , tested on Mycobacterium tuberculosis.
3.82

Please provide the recorded Percent Effect for CN(C)[C@@H]1CN(C(=O)Cc2ccc(F)cc2)[C@@H]2CCCO[C@H]12.O=C(O)C(F)(F)F , tested on Mycobacterium tuberculosis.
-22.98

Please provide the recorded Percent Effect for O=C(NC1CC1)[C@@H]1CCO[C@@H]2CCN(Cc3ccsc3)C[C@H]21.O=C(O)C(F)(F)F , tested on Mycobacterium tuberculosis.
-0.7242

Please provide the recorded Percent Effect for COCC1CN(C(=O)Cc2cccs2)Cc2nnn(CC3CC3)c21 (stereo not given) , tested on Mycobacterium tuberculosis.
-31.31

---

Tested on: Mycobacterium tuberculosis
assay text: Cornell M. t heat shock assay; further: in the data most compounds retested in dose-response had high values
Format: functional, organism-based
Design: dose or concentration left out as unconfirmed
About 950 (1.4%) of roughly 69,000 compounds showed an effect of 50% or more. This is one part of a sample in which strong results are shown more often than they occur.
Mark each entry met if its Percent Effect sits below 20%, and not met for all others.

Example entries begin here.
Cc1ncc(CN2CCC(c3nc4cc(Cl)ccc4o3)CC2)s1
met
Cc1ccc(N2C[C@@H]3OCCN(CC4CC4)[C@@H]3C2)nn1.O=C(O)C(F)(F)F
not met
Cc1cncc(C(=O)N2C[C@@H]3CN(S(C)(=O)=O)CCO[C@@H]3C2)c1.O=C(O)C(F)(F)F
met

Threshold test, Percent Effect < 20%: CCOC(=O)N1CC(=O)N(Cc2cccc(OC)c2OC)CC(O)C1 (stereo not drawn)
not met

Threshold test, Percent Effect < 20%: CN(Cc1ccccc1OC(F)(F)F)C(=O)C1CC1
met

Threshold test, Percent Effect < 20%: Cc1ccc(C(=O)N2CC(=O)N(Cc3ccco3)CC(O)C2)cc1 (stereo not drawn)
not met

Threshold test, Percent Effect < 20%: COCCN1C[C@H]2CC[C@@H]1CN(Cc1cc(=O)c3cc(C)ccc3[nH]1)C2
not met

Threshold test, Percent Effect < 20%: COCC(=O)NC1CC2(CCN(CC3CC3)CC2)Oc2ccccc21.O=C(O)C(F)(F)F (stereo not drawn)
met

Hey, just so you know, these numbers are from ChEMBL document CHEMBL3988442.
